Tested on: HMPV clinical isolate TN/1501/A1
Test: HMPV antiviral assay Method-B (clinical isolate TN/1501/A1 in LLC-MK2 cells, ATP-Lite readout)
Assay type: cell-based, Human metapneumovirus (HMPV)
Details: human metapneumovirus, LLC-MK2, 144 h, hMPV WT1501 (clinical isolate TN/1501/A1), 6 days
So I've got a bunch of molecules here, and I need their EC50 values.

INPUT: Dear colleague, I am looking for the recorded EC50 of the following molecule: COc1cc(C(=O)NC[C@](O)(c2cc3c(c(-c4cc(Cl)c(F)cc4F)n2)OC[C@]3(C)C(N)=O)C2(F)CC2)cc2cc(Br)c(C)nc12
OUTPUT: < 500 nM

INPUT: Dear colleague, I am looking for the recorded EC50 of the following molecule: COc1cc(C(=O)NC[C@](O)(c2cc3c(c(-c4ccc5c(c4)OC(F)(F)O5)n2)OC[C@]3(C)C(N)=O)C2CC2)cc2c(F)n(C3CC3)nc12
OUTPUT: < 500 nM

INPUT: Dear colleague, I am looking for the recorded EC50 of the following molecule: COc1cc(C(=O)NC[C@](O)(c2cc3c(c(-c4ccc(F)c(Cl)c4F)n2)OC[C@]3(C)C(N)=O)C2CC2)cc2cn(C3CC3)nc12
OUTPUT: < 500 nM

INPUT: Dear colleague, I am looking for the recorded EC50 of the following molecule: COc1cc(C(=O)NC[C@](O)(c2cc3c(c(-c4cc(Cl)c(F)c(Cl)c4)n2)OC[C@]3(C)C(N)=O)C2CC2)cc2cc(Br)cnc12
OUTPUT: > 500 nM

INPUT: Dear colleague, I am looking for the recorded EC50 of the following molecule: Cc1cnc2c(Nc3cnccn3)cc(C(=O)NC[C@](O)(c3cc4c(c(-c5ccc6c(c5)OC(F)(F)O6)n3)OC[C@]4(C)C(N)=O)C3CC3)cc2c1
OUTPUT: < 500 nM

INPUT: Dear colleague, I am looking for the recorded EC50 of the following molecule: COc1cc(C(=O)NC[C@](O)(c2cc3c(c(-c4csc5c(F)cccc45)n2)OC[C@]3(C)C(N)=O)C2(F)CC2)cc2cn(C3CC3)nc12
OUTPUT: < 500 nM

====

Tested on: HMPV clinical isolate TN/1501/A1
Assay: HMPV antiviral assay Method-B (clinical isolate TN/1501/A1 in LLC-MK2 cells, ATP-Lite readout)
Format: cell-based, Human metapneumovirus (HMPV)
Conditions: human metapneumovirus, LLC-MK2, 144 h, hMPV WT1501 (clinical isolate TN/1501/A1), 6 days
So I've got a bunch of compounds here, and I need their EC50 values.

INPUT: Dear colleague, I am looking for the recorded EC50 of the following compound: COc1cc(C(=O)NC[C@](O)(c2cc3c(c(-c4cc(F)c(Cl)cc4F)n2)OC[C@]3(C)C(N)=O)C2CC2)cc2cn(C3(F)CC3)nc12
OUTPUT: < 500 nM

INPUT: Dear colleague, I am looking for the recorded EC50 of the following compound: COc1cc(C(=O)NC[C@](O)(c2cc3c(c(-c4ccc(F)cc4F)n2)OC[C@]3(C)C(N)=O)C(F)(F)F)cc2cn(C3CC3)nc12
OUTPUT: < 500 nM

INPUT: Dear colleague, I am looking for the recorded EC50 of the following compound: Cc1cnc2c(OC(F)(F)F)cc(C(=O)NC[C@](O)(c3cc4c(c(-c5ccc(F)c(Cl)c5)n3)OC[C@]4(C)C(N)=O)C3CC3)cc2c1
OUTPUT: < 500 nM

INPUT: Dear colleague, I am looking for the recorded EC50 of the following compound: COc1cc(C(=O)NC[C@](O)(c2cc3c(c(-c4csc5ccccc45)n2)OC[C@]3(C)C(N)=O)C(F)(F)F)cc2cn(C3CC3)nc12
OUTPUT: > 500 nM

INPUT: Dear colleague, I am looking for the recorded EC50 of the following compound: COc1cc(C(=O)NC[C@](O)(c2cc3c(c(-c4cc(Cl)ccc4F)n2)OC[C@]3(C)C(N)=O)C2CC2)cc2cn(C(F)F)nc12
OUTPUT: < 500 nM

INPUT: Dear colleague, I am looking for the recorded EC50 of the following compound: COc1cc(C(=O)NC[C@](O)(c2cc3c(c(-c4ccc(C(F)F)s4)n2)OC[C@]3(C)C(N)=O)C(F)(F)F)cc2cn(C3CC3)nc12
OUTPUT: > 500 nM

INPUT: Dear colleague, I am looking for the recorded EC50 of the following compound: COc1cc(-c2nc([C@@](O)(CNC(=O)c3cc(OC)c4nn(C5CC5)cc4c3)C(F)(F)F)cc3c2OC[C@]3(C)C(N)=O)ccc1F
OUTPUT: > 500 nM

INPUT: Dear colleague, I am looking for the recorded EC50 of the following compound: C[C@]1(C(N)=O)COc2c1cc([C@@](O)(CNC(=O)c1cc(F)c3nc(N)sc3c1)C(F)(F)F)nc2-c1ccc2c(c1)OC(F)(F)O2
OUTPUT: > 500 nM

INPUT: Dear colleague, I am looking for the recorded EC50 of the following compound: COc1cc(C(=O)NC[C@](O)(c2nc(-c3ccc4c(c3)OC(F)(F)O4)c3c(c2F)[C@@](C)(C(N)=O)CO3)C2CC2)cc2cn(C3(F)CC3)nc12
OUTPUT: < 500 nM

INPUT: Dear colleague, I am looking for the recorded EC50 of the following compound: COc1cc(C(=O)NC[C@](O)(c2cc3c(c(-c4ccc(F)c(Cl)c4F)n2)OC[C@]3(C)C(N)=O)C(F)(F)F)cc2cc(Cl)c(C)nc12
OUTPUT: < 500 nM

INPUT: Dear colleague, I am looking for the recorded EC50 of the following compound: COc1cc(C(=O)NC[C@](O)(c2cc3c(c(-c4csc5c(F)cccc45)n2)OC[C@]3(C)C(N)=O)C2CC2)cc2cn(C3CC3)nc12
OUTPUT: < 500 nM

INPUT: Dear colleague, I am looking for the recorded EC50 of the following compound: COc1cc(C(=O)NC[C@](O)(c2cc3c(c(-c4ccc(Cl)c(F)c4F)n2)OC[C@]3(C)C(N)=O)C2CC2)cc2cc(Br)cnc12
OUTPUT: < 500 nM

INPUT: Dear colleague, I am looking for the recorded EC50 of the following compound: COc1cc(C(=O)NC[C@](O)(c2cc3c(c(-c4cc(F)c(F)cc4F)n2)OC[C@]3(C)C(N)=O)C(F)(F)F)cc2cc(Cl)c(C)nc12
OUTPUT: < 500 nM

INPUT: Dear colleague, I am looking for the recorded EC50 of the following compound: Cc1cnc2c(OC(F)F)cc(C(=O)NC[C@](O)(c3cc4c(c(-c5ccc(F)cc5)n3)OC[C@@]4(CF)C(N)=O)C3CC3)cc2c1
OUTPUT: > 500 nM

INPUT: Dear colleague, I am looking for the recorded EC50 of the following compound: COc1cc(C(=O)NC[C@](O)(c2cc3c(c(-c4ccc(F)c(Br)c4F)n2)OC[C@]3(C)C(N)=O)C2CC2)cc2cc(Cl)c(C)nc12
OUTPUT: < 500 nM

INPUT: Dear colleague, I am looking for the recorded EC50 of the following compound: COc1cc(C(=O)NC[C@](O)(c2cc3c(c(-c4c(F)cc(Cl)cc4F)n2)OC[C@]3(C)C(N)=O)C2CC2)cc2cn(C3CC3)nc12
OUTPUT: < 500 nM

INPUT: Dear colleague, I am looking for the recorded EC50 of the following compound: COc1cc(C(=O)NC[C@](O)(c2cc3c(c(-c4ccc(F)cc4)n2)OC[C@]3(C)C(N)=O)C(F)(F)F)n2ccnc2c1
OUTPUT: > 500 nM

INPUT: Dear colleague, I am looking for the recorded EC50 of the following compound: Cc1cnc2c(OC(F)F)cc(C(=O)NC[C@](O)(c3cc4c(c(-c5ccc6c(c5)OC(F)(F)O6)n3)OC[C@]4(C)C(N)=O)C3CC3)cc2c1
OUTPUT: < 500 nM

INPUT: Dear colleague, I am looking for the recorded EC50 of the following compound: COc1cc(C(=O)NC[C@](O)(c2cc3c(c(-c4ccc(F)cc4)n2)OC[C@]3(C)C(N)=O)C(F)(F)F)cc2cn(C3(F)CC3)nc12
OUTPUT: < 500 nM

INPUT: Dear colleague, I am looking for the recorded EC50 of the following compound: Cc1nc2c(OC3CC3)cc(C(=O)NC[C@](O)(c3cc4c(c(-c5ccc(F)c(Cl)c5)n3)OC[C@]4(C)C(N)=O)C3CC3)cc2cc1Cl
OUTPUT: < 500 nM

INPUT: Dear colleague, I am looking for the recorded EC50 of the following compound: COc1cc(C(=O)NC[C@](O)(c2cc3c(c(-c4c(F)cc(F)cc4Cl)n2)OC[C@]3(C)C(N)=O)C(F)(F)F)cc2cn(C3CC3)nc12
OUTPUT: < 500 nM

INPUT: Dear colleague, I am looking for the recorded EC50 of the following compound: COc1cc(C(=O)NC[C@](O)(c2cc3c(c(-c4ccc(F)c(F)c4Cl)n2)OC[C@]3(C)C(N)=O)C2CC2)cc2cc(Cl)c(C)nc12
OUTPUT: < 500 nM

INPUT: Dear colleague, I am looking for the recorded EC50 of the following compound: C[C@]1(C(N)=O)COc2c1cc([C@@](O)(CNC(=O)c1cc(F)c3nc(N)sc3c1)C1CC1)nc2-c1ccc(F)c(Cl)c1
OUTPUT: < 500 nM
